Tested on: HS 578T
Test: NCI 60 human tumor cell line screen (SRB)
Format: cell-based
Details: HS 578T (Breast Cancer); 48 h
Endpoint name: Log10TGI50
Numbers only.

Example entries begin here.
* C[C@]1(C(=O)[C@H](Cc2ccccc2)NC(=O)[C@H](COC(F)F)NC(=O)[C@H](COC(F)F)NC(=O)CN2CCOCC2)CO1 | −6.24
* Cc1ncc(C(=O)N[C@@H](COC(F)F)C(=O)N[C@@H](COC(F)F)C(=O)N[C@@H](Cc2ccccc2)C(=O)[C@@]2(C)CO2)s1 | −5.44

Next:
**Query** Return reported Log10TGI50; argument: CC(C)C[C@H](NC(=O)[C@H](Cc1ccccc1)NC(=O)[C@H](COC(F)F)NC(=O)CN1CCOCC1)C(=O)[C@@]1(C)CO1
**Result** −6.24

Reference source for all entries: patent US9441012B2
